System: 8226/I-R myeloma cells
measurement protocol: MTT growth inhibition, imexon-resistant 8226 myeloma cells
Assay type: cell-based, human
measurement conditions: Homo sapiens; Table 5; imexon-resistant 8226; read-out: IC50
# reported IC50; entries follow
measured attribute: IC50

INSERT INTO assay_data (compound, test_target, measured_attribute, measured_value) VALUES
  ('N#CC1CN1C(=O)Nc1ccc(C(F)(F)F)cc1 (stereo not drawn)', '8226/I-R myeloma cells', 'IC50', '2 µg/mL'),
  ('N#CC1CN1C(=O)Nc1ccc(S(N)(=O)=O)cc1 (stereo not drawn)', '8226/I-R myeloma cells', 'IC50', '< 100 µg/mL'),
  ('N#CC1CN1C(=O)Nc1ccc([N+](=O)[O-])cc1 (stereo not drawn)', '8226/I-R myeloma cells', 'IC50', '2 µg/mL');

----------
Listing of entries alongside the reported IC50.
System: A-549 lung cancer cells
measurement protocol: In vitro antitumor activity, A-549 lung
Format: cell-based
measurement conditions: Homo sapiens, A549
measured attribute: IC50 (µg/mL)

INSERT INTO measurements (molecule, unit_label, measured_value) VALUES
  ('CC(C)(C)NC(=O)N1CC1C#N (stereo not drawn) [AMP 410]', 'µg/mL', 33),
  ('N#CC1CN1C(=O)Nc1ccc(F)cc1 (stereo not drawn) [AMP 415]', 'µg/mL', 1.3),
  ('CCNC(=O)N1CC1C#N (stereo not drawn) [AMP 406, 2-Cyanoaziridine-1-(N-ethyl)carboxamide]', 'µg/mL', 2.5);

----------
Tested on: WiDr colon cancer cells
measurement protocol: In vitro antitumor activity, WiDr colon
Type: cell-based
measurement conditions: Homo sapiens
This listing pairs compounds with measured IC50.
measured attribute: IC50 (µg/mL)

INSERT INTO measurements (compound, measured_value) VALUES
  ('N#CC1CN1C(=O)Nc1ccc(F)cc1 (stereo not drawn) [AMP 415]', 0.4),
  ('CCNC(=O)N1CC1C#N (stereo not drawn) [AMP 406, 2-Cyanoaziridine-1-(N-ethyl)carboxamide]', 5.6),
  ('N#CC1CN1C(=O)Nc1ccccc1 (stereo not drawn) [AMP 404, 2-Cyanoaziridine-1-(N-phenyl)carboxamide]', 0.9);
